study.target: RNA-directed RNA polymerase (Hepacivirus hominis)
Sequence (O39930 whole entry): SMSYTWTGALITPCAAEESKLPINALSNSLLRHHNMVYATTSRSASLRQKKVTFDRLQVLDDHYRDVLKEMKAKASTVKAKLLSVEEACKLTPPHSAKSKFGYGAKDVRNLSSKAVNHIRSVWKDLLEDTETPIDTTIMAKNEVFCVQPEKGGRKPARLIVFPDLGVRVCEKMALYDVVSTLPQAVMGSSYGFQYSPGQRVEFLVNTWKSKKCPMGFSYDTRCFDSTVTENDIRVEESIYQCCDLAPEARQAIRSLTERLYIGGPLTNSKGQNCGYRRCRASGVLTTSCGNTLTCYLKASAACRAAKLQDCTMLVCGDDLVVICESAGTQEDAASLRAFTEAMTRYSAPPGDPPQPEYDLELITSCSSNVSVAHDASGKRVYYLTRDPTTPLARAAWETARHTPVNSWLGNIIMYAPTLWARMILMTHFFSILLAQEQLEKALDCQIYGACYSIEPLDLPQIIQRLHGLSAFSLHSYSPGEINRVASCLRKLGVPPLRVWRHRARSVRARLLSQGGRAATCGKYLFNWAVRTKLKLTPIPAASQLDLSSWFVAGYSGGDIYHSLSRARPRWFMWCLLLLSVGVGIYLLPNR
assay.name: Inhibition of HCV 1b NS5B RNA polymerase
Design: species or system Hepatitis C virus subtype 1b
Definition: the class of an entry is the range in bottom bin: < 0.05 µM; middle bin: ≥ 0.05 µM and < 1 µM; top bin: ≥ 1 µM that contains its IC50.

molecular.string	cat
CC(C)CCn1c(=O)c(C2=NS(=O)(=O)c3ccccc3N2)c(O)c2cccnc21	bottom bin
O=c1c(C2=Nc3ccc(Br)cc3S(=O)(=O)N2)c(O)c2cccnc2n1Cc1ccccc1	middle bin
CC(C)CCn1c(=O)c(C2=NS(=O)(=O)c3cc(NC(=O)C(F)(F)F)ccc3N2)c(O)c2cccnc21	middle bin
CC(C)CCn1c(=O)c(C2=Nc3ccc(OCc4ccccc4)cc3S(=O)(=O)N2)c(O)c2cccnc21	top bin
CC(C)CCn1c(=O)c(C2=NS(=O)(=O)c3cc(O)ccc3N2)c(O)c2cccnc21	bottom bin
COc1ccc2c(c1)N=C(c1c(O)c3cccnc3n(Cc3ccccc3)c1=O)NS2(=O)=O	top bin
COc1ccc2c(c1)S(=O)(=O)N=C(c1c(O)c3cccnc3n(CCC(C)C)c1=O)N2	middle bin
COc1cccc2c1N=C(c1c(O)c3cccnc3n(CCC(C)C)c1=O)NS2(=O)=O	top bin

====

assay.name: Half life in rat at 5 mg/kg, po
Assay type: ADME, organism-based
Set-up: dose 5 mg/kg, route oral
measurement.parameters: in vivo

molecular.string	unit.abbreviation	half-life
CC(C)CCn1c(=O)c(C2=Nc3ccc(OCC(N)=O)cc3S(=O)(=O)N2)c(O)c2cccnc21	h	2

====

pEC50: recorded values
Tested on: Hepatitis C virus
assay.name: Inhibition of HCV 1b replication in presence of 5% fetal calf serum
Format: functional, organism-based, Hepatitis C virus subtype 1b
pEC50: −log10 of the molar value.

molecular.string	pEC50
CC(C)CCn1c(=O)c(C2=Nc3ccc(OCC(N)=O)cc3S(=O)(=O)N2)c(O)c2cccnc21	7.11
CC(C)CCn1c(=O)c(C2=Nc3ccc(N)cc3S(=O)(=O)N2)c(O)c2cccnc21	6.32
CC(C)CCn1c(=O)c(C2=Nc3ccc(NCC(N)=O)cc3S(=O)(=O)N2)c(O)c2cccnc21	6.35

====

study.target: RNA-directed RNA polymerase (Hepacivirus hominis)
assay.name: Inhibition of HCV 1b NS5B RNA polymerase
Parameters: species or system Hepatitis C virus subtype 1b
// classify: if (IC50 < 0.9 µM) YES else NO

molecular.string	study.target	cat
CC(C)CCn1c(=O)c(C2=Nc3ccc(N)cc3S(=O)(=O)N2)c(O)c2cccnc21	RNA-directed RNA polymerase (Hepacivirus hominis)	YES
CC(C)CCn1c(=O)c(C2=Nc3ccc(NCC(N)=O)cc3S(=O)(=O)N2)c(O)c2cccnc21	RNA-directed RNA polymerase (Hepacivirus hominis)	YES
CCCOc1ccc2c(c1)S(=O)(=O)NC(c1c(O)c3cccnc3n(CCC(C)C)c1=O)=N2	RNA-directed RNA polymerase (Hepacivirus hominis)	NO
O=c1c(C2=NS(=O)(=O)c3cccc(Br)c3N2)c(O)c2cccnc2n1Cc1ccccc1	RNA-directed RNA polymerase (Hepacivirus hominis)	NO
CC(C)CCn1c(=O)c(C2=Nc3ccc(OCC(N)=O)cc3S(=O)(=O)N2)c(O)c2cccnc21	RNA-directed RNA polymerase (Hepacivirus hominis)	YES
CC(C)CCn1c(=O)c(C2=NS(=O)(=O)c3cc(NS(=O)(=O)C(C)C)ccc3N2)c(O)c2cccnc21	RNA-directed RNA polymerase (Hepacivirus hominis)	YES
